Reported values of inhibition at 0.01 µM for individual entries
Target: UniProt Q09472
Sequence (Q09472 whole entry): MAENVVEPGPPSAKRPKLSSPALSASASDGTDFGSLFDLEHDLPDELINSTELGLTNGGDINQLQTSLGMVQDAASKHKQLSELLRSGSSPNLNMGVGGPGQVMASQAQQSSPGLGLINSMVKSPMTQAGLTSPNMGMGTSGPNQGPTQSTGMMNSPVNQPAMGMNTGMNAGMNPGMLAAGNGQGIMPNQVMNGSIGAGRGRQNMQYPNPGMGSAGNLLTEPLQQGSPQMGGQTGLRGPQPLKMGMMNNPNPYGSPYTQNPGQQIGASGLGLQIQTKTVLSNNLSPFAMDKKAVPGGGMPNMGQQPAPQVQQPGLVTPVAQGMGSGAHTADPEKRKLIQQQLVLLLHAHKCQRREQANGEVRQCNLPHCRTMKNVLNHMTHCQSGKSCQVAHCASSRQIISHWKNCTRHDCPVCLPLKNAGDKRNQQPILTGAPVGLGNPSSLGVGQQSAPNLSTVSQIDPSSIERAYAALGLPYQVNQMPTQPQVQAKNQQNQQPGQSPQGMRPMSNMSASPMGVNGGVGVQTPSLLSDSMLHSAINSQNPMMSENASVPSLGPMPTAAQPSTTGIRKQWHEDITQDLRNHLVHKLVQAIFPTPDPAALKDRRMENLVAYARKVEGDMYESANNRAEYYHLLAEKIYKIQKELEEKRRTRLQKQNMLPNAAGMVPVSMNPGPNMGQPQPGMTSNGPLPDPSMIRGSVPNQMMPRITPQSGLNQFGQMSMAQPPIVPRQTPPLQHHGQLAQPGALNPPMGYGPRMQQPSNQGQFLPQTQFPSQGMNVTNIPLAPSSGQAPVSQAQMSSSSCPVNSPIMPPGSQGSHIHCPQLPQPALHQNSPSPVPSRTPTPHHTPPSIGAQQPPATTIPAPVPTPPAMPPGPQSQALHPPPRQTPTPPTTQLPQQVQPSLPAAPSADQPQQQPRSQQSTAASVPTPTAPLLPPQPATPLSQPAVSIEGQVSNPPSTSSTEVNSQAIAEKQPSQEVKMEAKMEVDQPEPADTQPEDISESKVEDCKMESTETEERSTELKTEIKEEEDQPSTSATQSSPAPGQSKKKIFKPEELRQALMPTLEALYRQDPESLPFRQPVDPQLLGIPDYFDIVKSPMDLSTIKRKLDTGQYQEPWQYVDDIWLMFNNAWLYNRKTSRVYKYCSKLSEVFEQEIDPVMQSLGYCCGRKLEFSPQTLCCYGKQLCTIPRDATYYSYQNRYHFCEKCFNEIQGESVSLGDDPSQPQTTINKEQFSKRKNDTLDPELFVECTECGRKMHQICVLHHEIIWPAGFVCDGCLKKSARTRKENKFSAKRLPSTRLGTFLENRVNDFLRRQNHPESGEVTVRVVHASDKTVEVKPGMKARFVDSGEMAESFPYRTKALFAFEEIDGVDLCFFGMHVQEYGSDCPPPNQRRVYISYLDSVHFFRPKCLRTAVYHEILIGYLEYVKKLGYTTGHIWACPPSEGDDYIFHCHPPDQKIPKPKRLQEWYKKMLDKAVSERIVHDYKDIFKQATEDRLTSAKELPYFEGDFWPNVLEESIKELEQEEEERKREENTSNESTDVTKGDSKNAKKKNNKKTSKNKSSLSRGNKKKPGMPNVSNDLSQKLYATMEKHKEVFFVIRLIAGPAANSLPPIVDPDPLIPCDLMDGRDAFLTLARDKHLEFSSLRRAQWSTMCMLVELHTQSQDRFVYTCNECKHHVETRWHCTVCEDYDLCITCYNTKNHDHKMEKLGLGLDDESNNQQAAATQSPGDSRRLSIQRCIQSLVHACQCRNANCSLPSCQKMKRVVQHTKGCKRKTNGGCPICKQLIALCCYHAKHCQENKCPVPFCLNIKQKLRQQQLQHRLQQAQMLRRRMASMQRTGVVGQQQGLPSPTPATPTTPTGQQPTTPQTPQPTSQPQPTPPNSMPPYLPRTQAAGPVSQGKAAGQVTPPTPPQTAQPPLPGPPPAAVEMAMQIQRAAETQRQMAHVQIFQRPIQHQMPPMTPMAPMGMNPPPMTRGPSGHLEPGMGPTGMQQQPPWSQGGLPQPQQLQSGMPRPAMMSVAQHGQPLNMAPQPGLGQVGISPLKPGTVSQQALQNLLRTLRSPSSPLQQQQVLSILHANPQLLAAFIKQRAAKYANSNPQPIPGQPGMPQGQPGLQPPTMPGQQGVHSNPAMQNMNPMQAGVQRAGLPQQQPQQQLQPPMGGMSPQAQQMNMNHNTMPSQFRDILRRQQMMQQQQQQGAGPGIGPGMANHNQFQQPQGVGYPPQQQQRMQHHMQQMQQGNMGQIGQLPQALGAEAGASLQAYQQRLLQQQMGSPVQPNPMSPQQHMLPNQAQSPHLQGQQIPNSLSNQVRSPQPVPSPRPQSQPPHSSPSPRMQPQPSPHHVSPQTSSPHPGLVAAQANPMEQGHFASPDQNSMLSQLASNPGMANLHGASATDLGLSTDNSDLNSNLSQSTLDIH
Test: Immunoblotting of P300 protein levels in LNCaP or 22RV1 cells
Type: cell-based
Set-up: LNCaP or 22RV1 cells that express CBP/P300 proteins were treated with GNE-781 or the bivalent compounds; endogenous in cells; host or cells: LNCaP (clone FGC) or 22RV1 cells
Conditions: percentage of inhibition of p300 at 10 nM (Table 3); read-out: Degradation (10 nM)
parameter: inhibition at 0.01 µM

[[record]]
compound = "CC(=O)N1CCc2c(c(N3CCCc4cc(-c5cnn(C)c5)c(C(F)F)cc43)nn2C2CCN(C(=O)CCCCCNc3ccc4c(c3)n(C)c(=O)n4C3CCC(=O)NC3=O)CC2)C1 (centres unmarked)"
parameter = "inhibition at 0.01 µM"
observed_value = "> 80%"

[[record]]
compound = "CC(=O)N1CCc2c(c(N3CCCc4cc(-c5cnn(C)c5)c(C(F)F)cc43)nn2C2CCN(C(=O)CN3CC(CCNc4cccc5c4C(=O)N(C4CCC(=O)NC4=O)C5=O)C3)CC2)C1 (centres unmarked)"
parameter = "inhibition at 0.01 µM"
observed_value = "20 to 50%"

[[record]]
compound = "CC(=O)N1CCc2c(c(N3CCCc4cc(-c5cnn(C)c5)c(C(F)F)cc43)nn2C2CCN(CCN3CCOC(CNc4cccc5c4C(=O)N(C4CCC(=O)NC4=O)C5=O)C3)CC2)C1 (centres unmarked)"
parameter = "inhibition at 0.01 µM"
observed_value = "> 80%"

[[record]]
compound = "CC(=O)N1CCc2c(c(N3CCCc4cc(-c5cnn(C)c5)c(C(F)F)cc43)nn2C2CCN(C(=O)CCCCCCn3c(=O)n(C4CCC(=O)NC4=O)c4ccccc43)CC2)C1 (centres unmarked)"
parameter = "inhibition at 0.01 µM"
observed_value = "50 to 80%"

[[record]]
compound = "CNC(=O)N1CCc2c(c(N3CCCc4cc(-c5cnn(C)c5)c(C(F)F)cc43)nn2C2CCN(C(=O)CCCCCOc3cccc4c3C(=O)N(C3CCC(=O)NC3=O)C4=O)CC2)C1 (centres unmarked)"
parameter = "inhibition at 0.01 µM"
observed_value = "50 to 80%"

